- Tested on: Hepatotoxicity
- protocol-description: FDA HLAED, alkaline phosphatase increase
- run-conditions: human
measured-property: Alkaline Phosphatase Increase - Number of Reports

Item Nc1nnc(-c2cccc(Cl)c2Cl)c(N)n1 has what recorded Alkaline Phosphatase Increase - Number of Reports?
< 4

Likewise for CO[C@H]1/C=C/O[C@@]2(C)Oc3c(C)c(O)c4c(O)c(c(/C=N/N5CCN(C)CC5)c(O)c4c3C2=O)NC(=O)/C(C)=C\C=C\[C@H](C)[C@H](O)[C@@H](C)[C@@H](O)[C@@H](C)[C@H](OC(C)=O)[C@@H]1C ?
>= 4

How about COc1cc([C@@H]2c3cc4c(cc3[C@@H](O[C@@H]3O[C@@H]5CO[C@@H](C)O[C@H]5[C@H](O)[C@H]3O)[C@H]3COC(=O)[C@H]23)OCO4)cc(OC)c1O [ETOPOSIDE] ?
< 4

Follow-up item: CC(=O)NO [ACETOHYDROXAMIC ACID]
< 4
